Target: IL-17A/F (Homo sapiens, UniProt Q16552+Q96PD4)
Sequence (Q16552 24-155): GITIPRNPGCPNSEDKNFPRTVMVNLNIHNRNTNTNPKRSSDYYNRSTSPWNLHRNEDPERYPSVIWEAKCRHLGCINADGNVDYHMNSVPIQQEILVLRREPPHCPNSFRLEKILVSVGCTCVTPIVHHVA
Sequence (Q96PD4 31-163): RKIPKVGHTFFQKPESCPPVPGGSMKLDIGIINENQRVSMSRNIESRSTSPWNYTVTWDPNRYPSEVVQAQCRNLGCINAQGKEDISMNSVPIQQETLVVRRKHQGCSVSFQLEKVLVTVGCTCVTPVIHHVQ
Assay: IL-17A/F HEK-Blue Cell Assay
Type: cell-based
Conditions: HEK-Blue IL-17 reporter cells, IL-17A/F stimulation, 20 hours, SEAP readout; read-out: IL17AF HEK Blue pIC50 (converted)
Experimental: The HEK-Blue IL-17 reporter cell line (Fisher #NC1408637) was used for cell-based IL-17A/F inhibition assays. Cells were grown and prepared for assays according to the manufacturer's instructions. […] Media from the cells is then added to a development reagent (Quanti-Blue Substrate, Fisher #NC9711613), and read at A630. […]
value type: IC50

Please review the entries below; each comes with its answer.
[[record]]
compound = "CCn1nccc1C(=O)N[C@H](C(=O)Nc1ccc([C@H](C)[C@@H](NC(=O)COC)C(=O)N2CCN(C)[C@H](C)C2)cc1F)C(C1CC1)C1CC1"
value_type = "IC50"
value = "0.01 to 0.1 µM"

[[record]]
compound = "CCn1nccc1C(=O)N[C@H](C(=O)Nc1ccc([C@H](C)[C@@H](NC(=O)C(C)CC(F)(F)F)C(=O)N2CCN(C)[C@H](C)C2)cc1F)C(C1CC1)C1CC1 (single isomer, unassigned)"
value_type = "IC50"
value = "0.01 to 0.1 µM"

[[record]]
compound = "CCC(=O)N[C@@H](C(=O)N1C[C@@H](C)N(C)C[C@H]1C)[C@@H](C)c1ccc(NC(=O)[C@@H](NC(=O)c2ccnn2CC)C(C2CC2)C2CC2)c(F)c1"
value_type = "IC50"
value = "0.01 to 0.1 µM"


Which IC50 reading was recorded for the compound CCn1nccc1C(=O)N[C@H](C(=O)Nc1ccc([C@H](C)[C@@H](NC(=O)[C@H](C)OC)C(=O)N2C[C@@H](C)N(C)C[C@H]2C)cc1F)C(C1CC1)C1CC1 ?
< 0.01 µM

Which IC50 reading was recorded for the compound CCn1nccc1C(=O)N[C@H](C(=O)Nc1ccc([C@H](C)[C@@H](NC(=O)C(C)C2CC2)C(=O)N2CCN(C)CC2)cc1F)C(C1CC1)C1CC1 (single isomer, unassigned) ?
0.01 to 0.1 µM
